This section presents IC50 values reported for Glycogen synthase kinase-3 alpha (Homo sapiens) in the literature.
Mark 1 only for IC50 values smaller than 800 nM; exact matches and larger values are 0.

[
  {
    "Molecule": "COc1c(CC(N)=O)cc(C(C)(C)C)cc1NC(=O)Nc1ccc(Oc2ccnc(Nc3cc(C#N)cc(OCCN4CCOCC4)c3)c2)c2ccccc12",
    "Label": 0
  },
  {
    "Molecule": "COc1cc(Nc2cc(Oc3ccc(NC(=O)Nc4cc(C(C)(C)C)cc(C(N)=O)c4OC)c4ccccc34)ccn2)ccc1C(=O)NCCN1CCOCC1",
    "Label": 0
  },
  {
    "Molecule": "C#CC(C)(C)c1cc(NC(=O)Nc2ccc(Oc3ccnc(Nc4cc(OC)cc(C(=O)NCCN5CCOCC5)c4)n3)c3ccccc23)n(-c2ccc(C)cc2)n1",
    "Label": 1
  },
  {
    "Molecule": "C#Cc1cc(Nc2nccc(Oc3ccc(NC(=O)Nc4cc(C(C)(C)C)cc(NS(C)(=O)=O)c4OC)c4ccccc34)n2)cc(C(=O)NCCN2CCOCC2)c1",
    "Label": 1
  },
  {
    "Molecule": "CC(C)(C)c1cc(NC(=O)Nc2ccc(Oc3ccnc(Nc4ccc5[nH]ncc5c4)n3)c3ccccc23)n(-c2ccc(=O)n(CCO)c2)n1",
    "Label": 0
  },
  {
    "Molecule": "COc1cc(Nc2cc(Oc3ccc(NC(=O)Nc4cc(C(C)(C)C)cc([S+](C)[O-])c4OC)c4ccccc34)ccn2)cc(C(N)=O)c1 (stereo not shown)",
    "Label": 0
  },
  {
    "Molecule": "CS(=O)(=O)c1ccncc1NC(=O)c1ccnn2cc(-c3ccccc3)nc12",
    "Label": 1
  },
  {
    "Molecule": "COCCOCCOCCOc1cc(Nc2nccc(Oc3ccc(NC(=O)Nc4cc(C(C)(C)C)cc5[nH]c(=O)oc45)c4ccccc34)n2)cc(OC)c1",
    "Label": 0
  },
  {
    "Molecule": "COc1cccc(Nc2cc(Oc3ccc(NC(=O)Nc4cc(C(C)(C)C)cc([S+](C)[O-])c4OC)c4ccccc34)ccn2)c1 (stereo not shown)",
    "Label": 0
  },
  {
    "Molecule": "COc1cc(Nc2cc(Oc3ccc(NC(=O)Nc4cc(C(C)(C)C)cc(CC(N)=O)c4OC)c4ccccc34)ccn2)cc(C(=O)NCCN2CC[S+]([O-])CC2)c1",
    "Label": 0
  },
  {
    "Molecule": "O=C(Nc1cnccc1N1CCC(F)(F)CC1)c1ccnn2cc(C3=CCCCC3)nc12",
    "Label": 1
  }
]
